Here, each record is paired with measured SPOT peptide array binding signal intensity data.
# tested_system: SpHof1-2
# method_description: SPOT peptide array binding signal intensity (averaged, normalized) (arbitrary units (background-subtracted, floor 0; scale differs between SH3 domains)); higher = stronger binding of the SH3 domain to the peptide
property_measured: SPOT peptide array binding signal intensity

- binder: "NILKRRPLKLEAPSK"
  censoring_qualifier: "≤"
  measured_value: 0
- binder: "QPPLPSSAPPIPTSH"
  censoring_qualifier: "≤"
  measured_value: 0
- binder: "TKHKAPPPPPPTAET"
  censoring_qualifier: "≤"
  measured_value: 0
- binder: "QRIRKIPGIPLMSVG"
  censoring_qualifier: "="
  measured_value: 51.5
- binder: "DRIRMFIRFPKFLLE"
  censoring_qualifier: "="
  measured_value: 35.8
- binder: "VAPPPLPNRQLPNLD"
  censoring_qualifier: "="
  measured_value: 11.5
- binder: "NENKKLPPAPTVFGL"
  censoring_qualifier: "="
  measured_value: 344
- binder: "QLMKNLPKIPLLNDI"
  censoring_qualifier: "="
  measured_value: 1050
- binder: "LRWRHKFFLPAIAAI"
  censoring_qualifier: "="
  measured_value: 2.25
- binder: "FPGKKSPRLPHRNKK"
  censoring_qualifier: "="
  measured_value: 19.8
- binder: "DFTLPPPPPPPGLDE"
  censoring_qualifier: "="
  measured_value: 2.5
- binder: "FYHRPAPKPPVTKKV"
  censoring_qualifier: "≤"
  measured_value: 0
- binder: "APERAVPILPPRNNV"
  censoring_qualifier: "="
  measured_value: 8
- binder: "AERNYAPRLPRRETS"
  censoring_qualifier: "="
  measured_value: 10.2
- binder: "LKPPIGRPPKFPKSP"
  censoring_qualifier: "≤"
  measured_value: 0
- binder: "AGKRRLPLVRFKASD"
  censoring_qualifier: "="
  measured_value: 99.5
- binder: "NRPAIRIPSLKKPAL"
  censoring_qualifier: "="
  measured_value: 1.5
